Target: SIRT1 (Homo sapiens, UniProt Q96EB6)
Construct: purchased Biomol International, Inc. / Enzo Life Sciences / BlueSky BioTech
Sequence (Q96EB6 1-747): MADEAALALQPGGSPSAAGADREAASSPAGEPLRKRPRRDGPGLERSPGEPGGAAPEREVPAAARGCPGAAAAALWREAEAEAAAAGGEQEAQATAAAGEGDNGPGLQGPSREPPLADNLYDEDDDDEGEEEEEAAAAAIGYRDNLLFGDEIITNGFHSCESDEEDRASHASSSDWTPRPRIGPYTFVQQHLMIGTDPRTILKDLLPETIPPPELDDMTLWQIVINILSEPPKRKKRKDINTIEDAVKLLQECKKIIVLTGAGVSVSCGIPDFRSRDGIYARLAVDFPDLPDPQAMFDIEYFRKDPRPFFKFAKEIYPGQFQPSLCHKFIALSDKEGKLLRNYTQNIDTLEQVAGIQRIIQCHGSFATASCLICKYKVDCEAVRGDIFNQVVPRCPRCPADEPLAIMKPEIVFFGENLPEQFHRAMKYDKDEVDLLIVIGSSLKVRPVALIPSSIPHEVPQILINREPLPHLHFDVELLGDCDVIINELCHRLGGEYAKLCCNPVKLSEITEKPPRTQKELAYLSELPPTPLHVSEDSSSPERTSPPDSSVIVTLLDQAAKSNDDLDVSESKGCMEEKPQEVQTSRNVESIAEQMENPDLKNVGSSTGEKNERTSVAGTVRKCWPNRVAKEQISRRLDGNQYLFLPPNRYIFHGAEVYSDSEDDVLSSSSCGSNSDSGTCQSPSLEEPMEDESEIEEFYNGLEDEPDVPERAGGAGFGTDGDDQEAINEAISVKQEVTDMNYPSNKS
Assay: MALDI-TOF MS deacetylation assay
Format: biochemical
Conditions: Table 3; corrected values (see Table 5); read-out: IC50 values
Procedure: The assay was performed in a 20 µL reaction. 0.5 µM acetylated peptide and 120 µM NAD^+ in reaction buffer (50 mM Tris-acetate (pH 8), 137 mM NaCl, 2.7 mM KCI, 1 mM MgCl2, 5 mM DTT, 0.05 % BSA) were mixed with compound or DMSO (VC). Reactions were initiated by adding 10 nM of SIRT1. […] Samples were measured automatically (AutoXecute software, Bruker Daltonik GmbH) using an ultraflex II MALDI-TOF mass spectrometer (Bruker Daltonik GmbH) in positive ion reflector mode. […]
pIC50: −log10 of the molar value.
Entries and their pIC50

- compound: "COC1C(OC(N)=O)C(O)C(Oc2ccc(-c3coc4cc(O)cc(O)c4c3=O)cc2)OC1(C)C (centres unmarked)"
  measured-on: "SIRT1 (Homo sapiens, UniProt Q96EB6)"
  pIC50: 4.31
- compound: "COc1c(-c2c(O)cc(O)c3c(=O)cc(-c4ccc(O)cc4)oc23)c(O)cc2oc(-c3ccc(O)cc3)cc(=O)c12"
  measured-on: "SIRT1 (Homo sapiens, UniProt Q96EB6)"
  pIC50: 4.55
- compound: "COc1cc(-c2ccc(O)cc2)c(OC)c(O)c1C1=CC(=O)OC1CC(=O)O (centres unmarked)"
  measured-on: "SIRT1 (Homo sapiens, UniProt Q96EB6)"
  pIC50: 5.01
- compound: "O=C1CC(c2ccccc2)Oc2c(Cc3cccc(O)c3O)c(O)c(Cc3cccc(O)c3O)c(O)c21 (centres unmarked)"
  measured-on: "SIRT1 (Homo sapiens, UniProt Q96EB6)"
  pIC50: 4.34
- compound: "O=c1cc(-c2ccc(O)c(-c3c(O)cc(O)c4c(=O)cc(-c5ccc(O)cc5)oc34)c2)oc2cc(O)cc(O)c12"
  measured-on: "SIRT1 (Homo sapiens, UniProt Q96EB6)"
  pIC50: 4.44

###

target: p300 (Homo sapiens); construct: purchased Biomol International, Inc. / Enzo Life Sciences; assay: radioactivity based assay (Reaction Biology Corp.); format: biochemical
pIC50: −log10 of the molar value.

- compound-string: "CC(C)=CCc1c(O)cc(O)c2c(=O)c(O)c(-c3ccc(O)c(O)c3)oc12"
  pIC50: 5.68

###

Biological target: SIRT1 (Homo sapiens, UniProt Q96EB6)
Construct: purchased Biomol International, Inc. / Enzo Life Sciences / BlueSky BioTech
Sequence (Q96EB6 1-747): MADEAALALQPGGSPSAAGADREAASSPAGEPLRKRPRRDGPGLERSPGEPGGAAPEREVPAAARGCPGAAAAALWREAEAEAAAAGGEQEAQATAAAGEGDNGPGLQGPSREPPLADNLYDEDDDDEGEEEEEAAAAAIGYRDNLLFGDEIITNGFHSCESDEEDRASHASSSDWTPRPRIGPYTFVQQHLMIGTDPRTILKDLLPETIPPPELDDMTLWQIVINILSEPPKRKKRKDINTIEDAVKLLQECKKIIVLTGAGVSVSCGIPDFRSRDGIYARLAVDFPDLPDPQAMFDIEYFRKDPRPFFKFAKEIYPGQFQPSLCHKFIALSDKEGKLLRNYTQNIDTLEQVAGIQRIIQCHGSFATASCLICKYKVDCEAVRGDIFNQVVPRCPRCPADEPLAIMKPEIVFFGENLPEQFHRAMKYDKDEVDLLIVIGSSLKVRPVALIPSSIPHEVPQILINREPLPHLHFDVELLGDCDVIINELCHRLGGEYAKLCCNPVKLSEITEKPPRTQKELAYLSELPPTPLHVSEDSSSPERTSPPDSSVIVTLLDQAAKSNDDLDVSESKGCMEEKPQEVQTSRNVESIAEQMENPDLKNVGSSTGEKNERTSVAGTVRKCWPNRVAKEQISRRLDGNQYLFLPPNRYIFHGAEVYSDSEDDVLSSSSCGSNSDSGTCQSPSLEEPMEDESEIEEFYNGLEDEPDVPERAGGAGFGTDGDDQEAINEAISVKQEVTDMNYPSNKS
Experiment: MALDI-TOF MS deacetylation assay
Type: biochemical
Details: corrected by conversion factor according to Wu et al.; read-out: Corrected IC50
test-readout: IC50 (µM)

- molecule: "O=C1CC(c2ccccc2)Oc2c(Cc3cccc(O)c3O)c(O)c(Cc3cccc(O)c3O)c(O)c21 (centres unmarked) [NP 4]"
  endpoint-value: 46
- molecule: "COc1cc(-c2ccc(O)cc2)c(OC)c(O)c1C1=CC(=O)OC1CC(=O)O (centres unmarked) [NP 1]"
  endpoint-value: 9.7
- molecule: "COC1C(OC(N)=O)C(O)C(Oc2ccc(-c3coc4cc(O)cc(O)c4c3=O)cc2)OC1(C)C (centres unmarked) [NP 5]"
  endpoint-value: 49
- molecule: "O=c1cc(-c2ccc(O)c(-c3c(O)cc(O)c4c(=O)cc(-c5ccc(O)cc5)oc34)c2)oc2cc(O)cc(O)c12 [NP 3]"
  endpoint-value: 36
- molecule: "COc1c(-c2c(O)cc(O)c3c(=O)cc(-c4ccc(O)cc4)oc23)c(O)cc2oc(-c3ccc(O)cc3)cc(=O)c12 [NP 2]"
  endpoint-value: 28

###

molecular target: p300 (Homo sapiens, UniProt Q09472); construct: purchased Biomol International, Inc. / Enzo Life Sciences; assay: MALDI-TOF MS acetylation assay; type: biochemical; settings: uncorrected, not at initial velocity conditions; read-out: Obtained IC50'
Sequence (Q09472 whole entry, species assumed): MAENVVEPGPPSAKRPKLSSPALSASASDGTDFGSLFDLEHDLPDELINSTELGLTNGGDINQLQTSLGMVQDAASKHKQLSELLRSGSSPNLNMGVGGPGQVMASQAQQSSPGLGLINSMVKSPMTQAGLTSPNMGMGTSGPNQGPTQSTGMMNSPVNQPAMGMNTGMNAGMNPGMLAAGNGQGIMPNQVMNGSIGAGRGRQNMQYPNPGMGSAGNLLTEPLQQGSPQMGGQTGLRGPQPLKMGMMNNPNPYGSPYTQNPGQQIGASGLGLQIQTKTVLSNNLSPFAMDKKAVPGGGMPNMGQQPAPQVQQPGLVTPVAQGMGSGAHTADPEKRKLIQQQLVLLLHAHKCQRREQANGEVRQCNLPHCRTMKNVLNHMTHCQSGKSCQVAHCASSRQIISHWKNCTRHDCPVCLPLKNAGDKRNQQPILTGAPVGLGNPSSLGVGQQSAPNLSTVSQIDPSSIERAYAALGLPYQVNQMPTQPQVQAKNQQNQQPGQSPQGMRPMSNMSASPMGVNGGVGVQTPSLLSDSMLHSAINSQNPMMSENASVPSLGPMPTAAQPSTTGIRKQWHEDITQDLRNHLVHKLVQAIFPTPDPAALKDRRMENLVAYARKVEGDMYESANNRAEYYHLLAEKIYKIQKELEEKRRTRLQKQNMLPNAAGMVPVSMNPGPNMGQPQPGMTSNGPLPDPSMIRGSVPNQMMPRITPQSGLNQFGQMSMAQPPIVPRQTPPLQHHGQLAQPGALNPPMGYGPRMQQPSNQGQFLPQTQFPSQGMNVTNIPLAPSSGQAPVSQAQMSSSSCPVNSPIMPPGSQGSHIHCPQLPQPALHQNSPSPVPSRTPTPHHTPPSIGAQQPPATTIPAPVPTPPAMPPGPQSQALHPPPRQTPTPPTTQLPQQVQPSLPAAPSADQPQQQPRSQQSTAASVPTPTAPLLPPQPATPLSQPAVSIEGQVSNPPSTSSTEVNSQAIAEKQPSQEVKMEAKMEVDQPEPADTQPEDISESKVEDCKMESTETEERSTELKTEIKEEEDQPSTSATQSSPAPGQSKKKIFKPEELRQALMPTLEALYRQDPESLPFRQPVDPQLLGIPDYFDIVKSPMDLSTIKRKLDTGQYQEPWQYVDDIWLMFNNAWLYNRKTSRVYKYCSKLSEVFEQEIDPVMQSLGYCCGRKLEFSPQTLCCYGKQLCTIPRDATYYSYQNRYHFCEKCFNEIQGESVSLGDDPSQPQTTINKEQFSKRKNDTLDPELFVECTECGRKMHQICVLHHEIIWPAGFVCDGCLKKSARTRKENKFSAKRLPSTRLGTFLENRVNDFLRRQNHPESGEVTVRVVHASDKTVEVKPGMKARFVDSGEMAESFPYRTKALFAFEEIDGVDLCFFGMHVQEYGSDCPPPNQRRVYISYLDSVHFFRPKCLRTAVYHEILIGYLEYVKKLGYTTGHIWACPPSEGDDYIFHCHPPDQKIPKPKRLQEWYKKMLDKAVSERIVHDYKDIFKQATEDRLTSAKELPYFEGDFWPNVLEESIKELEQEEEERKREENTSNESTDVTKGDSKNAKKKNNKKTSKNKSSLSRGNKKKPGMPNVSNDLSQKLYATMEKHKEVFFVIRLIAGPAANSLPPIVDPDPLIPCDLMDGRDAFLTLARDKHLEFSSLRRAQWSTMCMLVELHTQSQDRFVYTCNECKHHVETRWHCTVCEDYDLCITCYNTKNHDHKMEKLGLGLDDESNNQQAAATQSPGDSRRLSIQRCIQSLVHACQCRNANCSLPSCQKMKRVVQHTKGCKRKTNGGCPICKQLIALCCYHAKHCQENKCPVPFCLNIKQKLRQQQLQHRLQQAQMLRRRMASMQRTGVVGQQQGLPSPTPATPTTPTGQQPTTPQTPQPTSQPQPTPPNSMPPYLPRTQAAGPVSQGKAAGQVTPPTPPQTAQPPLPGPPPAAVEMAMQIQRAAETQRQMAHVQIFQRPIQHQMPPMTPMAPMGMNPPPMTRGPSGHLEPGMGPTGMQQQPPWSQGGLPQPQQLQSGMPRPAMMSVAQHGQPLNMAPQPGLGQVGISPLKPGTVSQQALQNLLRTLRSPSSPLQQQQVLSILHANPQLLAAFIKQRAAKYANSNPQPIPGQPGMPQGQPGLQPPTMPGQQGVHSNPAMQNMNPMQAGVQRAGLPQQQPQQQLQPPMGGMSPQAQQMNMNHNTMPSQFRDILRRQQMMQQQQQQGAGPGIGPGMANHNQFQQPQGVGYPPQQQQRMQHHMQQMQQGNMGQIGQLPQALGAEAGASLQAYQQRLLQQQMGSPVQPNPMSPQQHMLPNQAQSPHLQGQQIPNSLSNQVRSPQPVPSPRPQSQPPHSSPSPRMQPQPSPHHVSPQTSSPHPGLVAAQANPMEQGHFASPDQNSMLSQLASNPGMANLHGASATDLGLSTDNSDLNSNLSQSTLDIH

- compound-string: "CC(C)=CCc1c(O)cc(O)c2c(=O)c(O)c(-c3ccc(O)c(O)c3)oc12"
  measured-on: "p300 (Homo sapiens, UniProt Q09472)"
  IC50, nM: 2350
